Tested on: RAW264.7
Assay: Antiinflammatory activity in mouse RAW264.7 cells assessed as inhibition of LPS-induced NO production at 100 uM measured after 24 hrs by Griess method
Format: functional
The source made the active and inactive calls. The rule behind the calls is not given here.

{"MOL": "C[C@@H]1CC[C@@]2(C)[C@H](C)C3=CC(=O)NC3=C[C@@]12C", "ASSAY_TARGET": "RAW264.7", "Activity": "inactive"}
{"MOL": "C=C1[C@@]2(CC=O)O[C@H](OC2=O)[C@@]2(C)[C@H](C)CC[C@@]12C", "ASSAY_TARGET": "RAW264.7", "Activity": "83.15%"}
{"MOL": "CCO[C@@]12C[C@@]3(C)[C@H](C)CC[C@@]3(C)[C@H](C)C1=CC(=O)O2", "ASSAY_TARGET": "RAW264.7", "Activity": "83.54%"}
{"MOL": "CCOC(=O)/C=C1\\C(=O)C[C@@]2(C)[C@H](C)CC[C@@]2(C)[C@@H]1C", "ASSAY_TARGET": "RAW264.7", "Activity": "inactive"}
{"MOL": "C[C@@H]1CC[C@@]2(C)[C@H](C)C3=CC(=O)N[C@@H]3C[C@@]12C", "ASSAY_TARGET": "RAW264.7", "Activity": "inactive"}
{"MOL": "CO[C@@]12C[C@@]3(C)[C@H](C)CC[C@@]3(C)[C@H](C)C1=CC(=O)O2", "ASSAY_TARGET": "RAW264.7", "Activity": "inactive"}
{"MOL": "CC1=C(CC(=O)O)C(=O)C[C@@]2(C)[C@H](C)CC[C@@]12C", "ASSAY_TARGET": "RAW264.7", "Activity": "inactive"}
{"MOL": "C=C1[C@]2(C)CC[C@@H](C)[C@]2(C)C[C@@]2(O)O[C@@H](OCC)[C@H](O)[C@@]12OCC", "ASSAY_TARGET": "RAW264.7", "Activity": "inactive"}
{"MOL": "CCOC(=O)C1=C(C)[C@]2(C)CC[C@@H](C)[C@]2(C)CC1=O", "ASSAY_TARGET": "RAW264.7", "Activity": "inactive"}
{"MOL": "C[C@@H]1CC[C@@]2(C)[C@H](C)[C@]3(C[C@@]12C)C(=O)O[C@H]1O[C@H]13", "ASSAY_TARGET": "RAW264.7", "Activity": "inactive"}
{"MOL": "C[C@@H]1CC[C@@]2(C)[C@H](C)C3=CC(=O)O[C@]3(O)C[C@@]12C", "ASSAY_TARGET": "RAW264.7", "Activity": "96.28%"}
